Molecular target: recombinant human PD-L1 (Sino Biological Inc.) (human, UniProt Q9NZQ7 19-239)
Sequence (Q9NZQ7 19-239 limits assumed): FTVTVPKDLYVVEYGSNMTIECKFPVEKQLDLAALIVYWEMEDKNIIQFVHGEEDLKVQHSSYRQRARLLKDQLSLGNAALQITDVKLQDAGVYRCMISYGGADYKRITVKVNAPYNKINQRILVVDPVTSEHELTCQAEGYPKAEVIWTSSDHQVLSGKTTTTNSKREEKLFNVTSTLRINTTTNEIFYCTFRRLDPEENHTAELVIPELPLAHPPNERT
Assay: SPR, Biacore X100
attributeMeasured: pKd
The meaning of pKd here: minus log10 of the concentration in molar units.

Below, each entry is followed by its recorded pKd result.
{"binder": "humanized anti-human PD-L1 monoclonal antibody VLS15-VHS12 P1 (antibody, human IgG1, kappa, V domains shown) VH: EVQLVQSGAEVKKPGSSVKVSCKASGFNIEDTYIHWVRQAPGQGLEWMGRIDPAQGNTKYDPKFQGRVTITADTSTNTAYMELSSLRSEDTAVYYCGRGLGAWFAYWGQGTLVTVSS VL: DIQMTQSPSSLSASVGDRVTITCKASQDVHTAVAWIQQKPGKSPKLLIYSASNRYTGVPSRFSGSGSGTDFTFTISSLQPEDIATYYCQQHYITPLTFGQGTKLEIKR", "attributeMeasured": "pKd", "testResult": 8.59}
{"binder": "chimeric anti-human PD-L1 monoclonal antibody (antibody, human IgG1, kappa, V domains shown, expressed in ExpiCHO cells; also called Chimeric mAb; Chimeric antibody) VH: EVQLQQSGAELVKPGASVKLSCTASGFNIEDTYIHWVMQRPEQGLEWIGRIDPANGNTKYDPKFQGKATITADTSSNTAYLQLSSLTSEDTAVYYCGRGLGAWFAYWGQGTLVTVSA VL: DIVMTQSHKVMSTSVGDRVTITCKASQDVHTAVAWIHQKPGQSPKLLIYSASNRYTGVPDRFTGSGSGTDFTFTISSVQAEDLAVYYCQQHYITPLTFGAGTTLELKR", "attributeMeasured": "pKd", "testResult": 8.93}

Form field pKd, entry humanized anti-human PD-L1 monoclonal antibody VLS10-VHS7 (antibody, human IgG1, kappa, V domains shown) VH: QVQLVQSGAEVKKPGSSVKVSCTASGFNIEDTYIHWVRQAPGQGLEWMGRIDPANGNTKYDPKFQGRVTITADTSTNTAYMELSSLRSEDTAVYYCGRGLGAWFAYWGQGTLVTVSS VL: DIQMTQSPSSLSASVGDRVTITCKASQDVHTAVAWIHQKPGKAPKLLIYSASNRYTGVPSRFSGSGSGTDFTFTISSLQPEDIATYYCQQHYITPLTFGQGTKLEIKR : 8.77
